- experiment.description: Effect on duodenal peptic ulcer induced by acetic acid (Okabe et al.)
- Format: in vivo
- condition.label: Rattus norvegicus, po, 240 h, oral 100 mg/kg/day, three times a day for 10 days, vs control group, read-out: Rate of curation of peptic ulcer
test.readout: inhibition in vivo at 100 mg/kg/day (%)
The answer is to be given in %; state only the numeric part.

COc1cc(C2NC(=O)CS2)cc(OC)c1OC (stereo not drawn) :: 82.1
COc1ccc(C2NC(=O)CS2)cc1 (stereo not drawn) :: 58.7
COc1cccc(C2NC(=O)CS2)c1OC (stereo not drawn) :: 82.7

Sample CC(C)=CCCC(C)=CCCC(C)=CCCC(=O)OCC=C(C)CCC=C(C)C [Gefarnate, reference compound] ; inhibition in vivo at 100 mg/kg/day observed: 23

Sample COc1ccc(OC)c(C2NC(=O)CS2)c1 (stereo not drawn) ; inhibition in vivo at 100 mg/kg/day observed: 65.3

Sample CCOc1ccccc1C1NC(=O)CS1 (stereo not drawn) ; inhibition in vivo at 100 mg/kg/day observed: 76

Sample COc1ccc(C2NC(=O)CS2)cc1OC (stereo not drawn) ; inhibition in vivo at 100 mg/kg/day observed: 80

Sample COc1ccccc1C1NC(=O)CS1 (stereo not drawn) ; inhibition in vivo at 100 mg/kg/day observed: 80

Sample COc1cc(C2NC(=O)CS2)cc(OC)c1O (stereo not drawn) ; inhibition in vivo at 100 mg/kg/day observed: 88
